System: MALME-3M melanoma
Test: NCI-60 one-dose screen, 48 h
Conditions: 10 µM unless noted
The panel holds about 83,000 compounds, 20% with a hit somewhere; the sample as a whole holds those more often. Activity calls are given as the source filed them. The calls were made as follows: active = growth percent below 10; inactive = the rest.
Outcomes: YES (active), NO (inactive)

# testSmiles, group
measured = [
    ("Cc1cc(C)c(C(=O)c2cccs2)c(C)c1", "NO"),
    ("CCOC(=O)c1sc(NC(=O)COc2cccc(/C=C3\\CCc4cc(OC)ccc4C3=O)c2)nc1C", "NO"),
    ("O=C(NCCNC(=O)Oc1cccc2ccccc12)Oc1cccc2ccccc12", "NO"),
    ("CC(C)C[C@H](NC(=O)/C=C/Cn1ccc2ccccc2c1=O)B(O)O", "YES"),
    ("COc1cc(-c2nc3sc4c(c3c(=O)[nH]2)CCCCCC4)cc(OC)c1OC", "NO"),
]

====

Test system: NCI/ADR-RES ovarian
Test: NCI-60 one-dose screen, 48 h (100 = growth as untreated, 0 = no growth, -100 = all killed)
Settings: 10 µM unless noted
Procedure: Growth inhibition of the NCI/ADR-RES human […] tumor cell line is measured as a screen for anti-cancer activity. Cells are grown in 96 well plates and exposed to the test compound for 48 hours. Compounds are tested at a single concentration, which is 10^-5 M for most compounds. The reported endpoint is percent growth (GI% or GIPRCNT), where numbers from 0 - 100% represent growth inhibition, and numbers from -100% - 0 represent cell death. For example, a value of 40 represents 60% growth inhibition. […]
Compounds without any hit were thinned out: in the full panel of roughly 83,000, 20% have a hit.
measuredParameter: growth (%)

# compound, measurement
measured = [
    ("Cc1ccc(C2=NNC(c3sc(Cl)nc3Cl)C2)cc1 (stereo not given)", 94.5),
    ("O=C1C(=O)/C(=C/c2ccccc2)CCCCCC/C1=C/c1ccccc1", 80.1),
    ("O=C(O)c1ccc2cccnc2c1O", -1.54),
    ("O=c1oc2c(cc1-c1ccc([N+](=O)[O-])cc1)C(O)Oc1ccccc1-2 (stereo not given)", 72.2),
    ("O=C(Nc1ccc2c(c1)C(=O)c1ccccc1-2)c1ccccc1", 70.4),
    ("O=C(CN1CCN(c2ccc(Cl)cc2)CC1)N1CCN(c2nnc(-c3ccc(Cl)cc3)c(-c3ccc(Cl)cc3)n2)CC1", 72.9),
    ("O=C1NC(=O)/C(=C\\c2ccco2)S1", 103),
    ("CCCn1c(N)c(C(=O)CNc2ccc(I)cc2)c(=O)[nH]c1=O", 77.1),
    ("O=C(N/N=C/c1cccc(O)c1)c1ccc(C(F)(F)F)nc1Nc1cccc(C(F)(F)F)c1", 13.6),
    ("CCOC(=O)C(Br)=P(c1ccccc1)(c1ccccc1)c1ccccc1", 103),
    ("C[N+]1(C)C2CC[C@@H]1CC(OC(=O)C(O)c1ccccc1)C2 (stereo not given in full)", 103),
    ("Nc1ccc2c(c1)C(=O)c1cc(Cl)c(Cl)cc1-2", 97.3),
    ("C/C(=C\\CCc1ccoc1)CC/C=C(\\C)CCCN1CCOCC1", 74.5),
    ("Cc1cc(C)cc(S(=O)(=O)n2ccc(-c3ccc4c(c3)CCC(C)(C)O4)n2)c1", 79),
    ("CCOC(=O)C1C(=O)NC(C(=O)OCC)(C(=O)OCC)C1CC (stereo not given)", 113),
    ("Cc1csc(C#Cc2cncc(O)c2)n1", 113),
    ("ICCC(c1ccccc1)(c1ccccc1)c1ccccc1", 74.6),
    ("OCc1n(Cc2ccc3ccccc3c2)cc[n+]1Cc1ccc2ccccc2c1", 103),
    ("CCOc1nc(-c2ccco2)n2nc(-c3ccco3)cc2n1", 99.5),
    ("C=C1CC[C@@H]2[C@](C)(COC(C)=O)[C@H](OC(C)=O)CC[C@@]2(C)[C@@H]1CC(NCc1ccccc1)C1=CCOC1=O (stereo not given in full)", 23.5),
    ("Nc1ccccc1C#Cc1ccccc1C#Cc1ccc(OCCCCCCOc2ccc(C#Cc3ccccc3C#Cc3ccccc3N)cc2)cc1", 93),
    ("COC(=O)CC1=C(c2ccc([N+](=O)[O-])cc2)CCC1=O", 109),
    ("CC1c2ccccc2-c2ccccc2N1C (stereo not given)", 108),
    ("CCOC1Oc2ccccc2C(=O)/C1=N/c1nccs1 (stereo not given)", 87.9),
    ("Cc1cc(C(=O)Nc2ccc3cc(CN4CCOCC4)ccc3n2)c(C)n1-c1ccccc1", -5.82),
    ("Oc1ccccc1/C=N/N1CCCCCC1", 101),
    ("O=C1C=CC(=O)N1c1ccccn1", 106),
    ("C[C@]12CC[C@H](O)CC1=CC[C@@H]1[C@@H]2CC[C@]2(C)C(c3cccnc3)=CC[C@@H]12", 49.9),
    ("CCC(C)C1NC(=O)C(CCNCS(=O)(=O)O)NC(=O)C(NC(=O)C(CCNCS(=O)(=O)O)NC(=O)C(NC(=O)C(CCNCS(=O)(=O)O)NC(=O)CCCCC(C)C)C(C)O)CCNC(=O)C(C(C)O)NC(=O)C(CCNCS(=O)(=O)O)NC(=O)C(CCNCS(=O)(=O)O)NC(=O)C(C(C)CC)NC1=O (stereo not given)", 107),
    ("N#Cc1ccccc1C#Cc1ccccc1C#Cc1ccc(OCCCCCCOc2ccc(C#Cc3ccccc3C#Cc3ccccc3C#N)cc2)cc1", 104),
    ("O=CN1N=C(c2ccc(Cl)cc2)CC1c1cccc(Nc2ccnc3cc(Cl)ccc23)c1 (stereo not given)", 2.47),
    ("OC(c1cc(-c2cccc(Cl)c2)nc2ccccc12)C1CCCCN1 (stereo not given)", -29.4),
    ("NS(=O)(=O)c1cc(C2(O)NC(=O)c3ccccc32)ccc1Cl (stereo not given)", 107),
    ("CCOc1cc(/C=C/C(=O)C(C(=O)/C=C/c2ccc(OC(=O)CNc3nc4ccccc4[nH]3)c(OCC)c2)C(=O)CNc2nc3ccccc3[nH]2)ccc1OC(=O)CNc1nc2ccccc2[nH]1", 24.3),
    ("Clc1ccc2c(c1)C(Br)c1cc(Cl)cc(Cl)c1-2 (stereo not given)", 96.1),
    ("C/C(=C\\CCc1ccoc1)CC/C=C(\\C)CCCC1COC(=O)C1 (stereo not given)", 101),
    ("CC1CN(/N=C/c2ccc([N+](=O)[O-])o2)C(=N)O1 (stereo not given)", 101),
    ("O=C(NN1C(=O)c2cc(C(=O)O)c(C(=O)O)cc2C1=O)c1ccncc1", 116),
    ("Cc1cn(C(C=O)OC(C=O)CO)c(=O)[nH]c1=O (stereo not given)", 107),
    ("CCOC(=O)c1sc(NC(=O)COc2ccc(/C=C3\\CCc4cc(OC)ccc4C3=O)cc2)nc1C", 86.6),
]
